target: T1, human PD-1 ECD/Fc fusion protein (human); experiment: BLI Octet, immobilized huPD-1-Fc, Ab analyte
T1 construct: also called huPD-1/Fc; HuPD-1 ECD/Fc
T1 sequence (chain, as listed by the source limits assumed): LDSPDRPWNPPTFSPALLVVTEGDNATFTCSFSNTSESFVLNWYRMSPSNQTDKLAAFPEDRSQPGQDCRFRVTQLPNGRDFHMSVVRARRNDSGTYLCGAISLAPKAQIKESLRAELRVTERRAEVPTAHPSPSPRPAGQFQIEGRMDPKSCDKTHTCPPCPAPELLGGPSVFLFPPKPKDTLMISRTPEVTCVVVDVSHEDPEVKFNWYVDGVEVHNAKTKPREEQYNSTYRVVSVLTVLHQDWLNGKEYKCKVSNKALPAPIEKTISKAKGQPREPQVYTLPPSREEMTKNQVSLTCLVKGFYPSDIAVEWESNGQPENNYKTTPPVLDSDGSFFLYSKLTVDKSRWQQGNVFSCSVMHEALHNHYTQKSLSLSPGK
Listed here are binders together with their documented Kd.
Entry rule: numbers only, all in pM.

Previously resolved entries follow.
[
  {
    "binder": "HumAb719-11 (antibody, human IgG1, kappa, L234A L235A, V domains shown, humanized mAb719) VH: EVQLLESGGGLVQPGGSLRLSCAASGFSFSSHLMSWVRQAPGKGLEWVAAISGGGADTYYPDSVKGRFTISRDNSKNTLYLQMNSLRAEDTAVYYCTRQILAFDSWGQGTTVTVSS VL: DIQMNQSPSSLSASVGDRVTITCHASQNIYVWLNWYQQKPGKAPKLLIYKASNLHTGVPSRFSGSGSGTDFTFTISSLQPEDIATYYCQQGQSYPWTFGGGTKVEIKR",
    "readingUnit": "pM",
    "Kd": 3820
  },
  {
    "binder": "HumAb719-8 (antibody, human IgG1, kappa, L234A L235A, V domains shown, humanized mAb719) VH: EVQLLESGGGLVQPGGSLRLSCAASGFTFSSHLMSWVRQAPGKGLEWVSAISGGGADTYYPDSVKGRFTISRDNSKNTLYLQMNSLRAEDTAVYYCAKQILAFDSWGQGTTVTVSS VL: DIQMNQSPSSLSASVGDRVTITCHASQNIYVWLNWYQQKPGKAPKLLIYKASNLHTGVPSRFSGSGSGTDFTFTISSLQPEDIATYYCQQGQSYPWTFGGGTKVEIKR",
    "readingUnit": "pM",
    "Kd": 460
  },
  {
    "binder": "HumAb719-21 (antibody, human IgG1, kappa, L234A L235A, V domains shown, humanized mAb719; also called HuniAb719-21) VH: EVQLLESGGGLVQPGGSLRLSCAASGFSFSSHLMSWVRQAPGKRLEWVAAISGGGADTYYPASVKGRFTISRDNSKNTLYLQMNSLRAEDTAVYYCTRQILAFDAWGQGTTVTVSS VL: DIQMNQSPSSLSASVGDRVTITCHASQNIYVWLNWYQQKPGKIPKLLIYKASNLHTGVPSRFSGSGSGTDFTFTISSLQPEDIATYYCQQGQSYPWTFGGGTKVEIKR",
    "readingUnit": "pM",
    "Kd": 600
  }
]

Shift focus to the following entry.
q: Quick one: Kd of HumAb719-12 (antibody, human IgG1, kappa, L234A L235A, V domains shown, humanized mAb719) VH: EVQLLESGGGLVQPGGSLRLSCAASGFSFSSHLMSWVRQAPGKRLEWVAAISGGGADTYYPDSVKGRFTISRDNSKNTLYLQMNSLRAEDTAVYYCTRQILAFDSWGQGTTVTVSS VL: DIQMNQSPSSLSASVGDRVTITCHASQNIYVWLNWYQQKPGKAPKLLIYKASNLHTGVPSRFSGSGSGTDFTFTISSLQPEDIATYYCQQGQSYPWTFGGGTKVEIKR ?
a: 844
